subjectOfTest: T1, HCoV-OC43 spike antigens (bead panel) (HCoV-OC43, UniProt P36334 14-1297)
T1 sequence: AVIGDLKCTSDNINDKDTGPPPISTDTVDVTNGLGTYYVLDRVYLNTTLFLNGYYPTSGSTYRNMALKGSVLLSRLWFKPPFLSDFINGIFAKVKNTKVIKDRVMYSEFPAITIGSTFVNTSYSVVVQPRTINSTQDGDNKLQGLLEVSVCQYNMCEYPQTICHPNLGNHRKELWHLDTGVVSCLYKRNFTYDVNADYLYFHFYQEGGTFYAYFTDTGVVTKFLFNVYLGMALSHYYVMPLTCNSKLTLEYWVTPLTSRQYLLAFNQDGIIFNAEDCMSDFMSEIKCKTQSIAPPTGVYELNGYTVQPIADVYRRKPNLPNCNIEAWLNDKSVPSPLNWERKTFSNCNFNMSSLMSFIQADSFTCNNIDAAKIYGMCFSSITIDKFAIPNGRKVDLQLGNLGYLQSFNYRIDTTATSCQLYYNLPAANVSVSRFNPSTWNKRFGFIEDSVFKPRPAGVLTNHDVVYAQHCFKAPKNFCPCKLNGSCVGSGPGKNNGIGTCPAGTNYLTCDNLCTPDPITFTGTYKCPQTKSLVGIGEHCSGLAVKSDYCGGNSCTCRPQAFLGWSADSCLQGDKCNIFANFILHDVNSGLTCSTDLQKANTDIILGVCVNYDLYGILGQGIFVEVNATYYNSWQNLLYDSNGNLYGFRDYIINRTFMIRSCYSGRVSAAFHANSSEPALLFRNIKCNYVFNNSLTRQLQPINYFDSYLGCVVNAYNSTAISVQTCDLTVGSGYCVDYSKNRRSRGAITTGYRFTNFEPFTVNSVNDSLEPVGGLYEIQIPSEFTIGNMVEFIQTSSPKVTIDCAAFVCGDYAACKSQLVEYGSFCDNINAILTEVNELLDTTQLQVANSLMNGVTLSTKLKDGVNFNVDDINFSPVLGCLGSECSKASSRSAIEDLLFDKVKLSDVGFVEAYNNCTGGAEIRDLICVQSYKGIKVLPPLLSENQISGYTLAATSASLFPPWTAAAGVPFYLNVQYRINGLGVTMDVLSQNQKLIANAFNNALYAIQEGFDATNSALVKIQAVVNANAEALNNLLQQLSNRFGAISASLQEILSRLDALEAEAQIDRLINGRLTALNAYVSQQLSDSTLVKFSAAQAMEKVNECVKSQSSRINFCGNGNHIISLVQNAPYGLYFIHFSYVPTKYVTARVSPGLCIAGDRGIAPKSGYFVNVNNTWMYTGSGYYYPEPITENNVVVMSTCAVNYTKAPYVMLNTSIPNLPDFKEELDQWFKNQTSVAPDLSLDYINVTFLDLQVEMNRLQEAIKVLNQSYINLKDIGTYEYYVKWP
protocolDetails: multiplex bead assay
endpoint: binding result

The binder listed as COV_2174 (antibody, V domains shown, human IgG1) VH: EVQLAESGGGLVKPGGSLRLSCAASGFTFSDYYMSWIRQAPGKGLEWVSYISSSGSTIYYADSVKGRFTISRDNAKNSLYLQMNSLRAEDTAVYYCARDWSVVVVPAAPAVDVWGQGTTVTVSS VL: DIQMTQSPSSLSASVGDRVTITCRASQGISNYLAWFQQKPGKAPKSLIYAASSLQSGVPSKFSGSGSGTDFTLTISSLQPEDFATYYCQQYNSYPLTFGGGTKVEIKR has a reported binding result of no binding

The binder listed as COV_2125 (antibody, V domains shown, human IgG1) VH: EVQLVESGGGVVQPGRSLRLSCAASGFTFSSYGMHWVRQAPGKGLEWVAVISYDGSNKYYADSVKGRFTISRDNSKNTLSLQMNSLRPEDTAVYYCAKDSPYYYDSSGYYPGYFQDWGQGSLVTVSS VL: DIQMTQSPSSLSASIGDRVTITCRASQTISDYLNWYQQKPGKAPNLLIYAASTLQSGVPSRFSGSGSGTDFTLTISSLQPEDFATYYCQQSYITPRTFGQGTKVEIK has a reported binding result of no binding
